# Test system: K-562 leukemia
# ASSAY_PROCEDURE: NCI tumour cell line growth inhibition, 48 h; in the data active = GI50 below about 0.43 µM; inactive = the rest
Possible outcomes: active, inactive

COMPOUND | CATEGORY_LABEL
COc1cc(/C=C2\C(=O)Nc3ccc(Cl)cc32)cc(OC)c1OC | inactive
NC(CCl)=NCC12CC3CC(CC(C3)C1)C2 | inactive
COc1ccc(NC(=O)c2ccc(C(F)(F)F)nc2Nc2ccc(Cl)cc2C)cc1Cl | inactive
Oc1c(CN2CCCCC2)ccc2cccnc12 | inactive
CN1C(c2ccccc2)CC(=NO)CC1c1ccccc1 (configuration not stated) | inactive
O=C1/C(=C/c2ccc(Cl)cc2)N=C(c2ccccc2)N1c1cc(C(F)(F)F)ccc1Cl | inactive
Cc1cc2[nH]c(=O)c3c4ncccc4cn3c2cc1C | inactive
O=C(N/N=C\c1ccc(N(CCCl)CCCl)cc1)c1cccnc1 | inactive
COc1ccc2c(c1)/C(=C\c1c(-c3ccccc3)nc3sccn13)C(=O)N2 | inactive
CCOc1ccc(Nc2ccnc3cc(Cl)ccc23)cc1 | inactive
COc1nc2c(c(=O)n1C)CN(c1ccccc1)C(=O)CN2C | inactive
Cc1cc(C)c([I+]c2c(C)cc(C)cc2C)c(C)c1 | active

---

Known TGI of a selection of compounds
# Tested on: SK-MEL-2 melanoma
# ASSAY_PROCEDURE: NCI tumour cell line growth inhibition, 48 h
Where a SMILES comes first, the peptide text is derived from it.

COMPOUND | UOM | QUALIFYING_SIGN | TGI
C#Cc1cccc(Nc2nc(C)nc3cc(NC(=O)CCl)ccc23)c1 | µM | = | 7.9
COC(=O)[C@H](Cc1ccccc1)NC(=O)OCC1OC(n2cc(C)c(=O)[nH]c2=O)CC1N=[N+]=[N-] (stereo not given in full) | µM | > | 100
COc1nc2c(c(=O)[nH]1)N=C(c1ccccc1)CC(c1ccccc1)N2 (stereo not given) | µM | > | 100
CC(=O)NC(CS)C(=O)NC(CO)C(=O)NC(CO)C(=O)NC(Cc1c[nH]c2ccccc12)C(=O)N1CCCC1C(=O)NC(CO)C(=O)NC(Cc1c[nH]c2ccccc12)C(=O)NC(Cc1c[nH]cn1)C(=O)NC(CO)C(=O)NC(Cc1c[nH]c2ccccc12)C(=O)NCC(=O)NCC(=O)NC(C)C(=O)NC(CCC(N)=O)C(=O)NC(CCCCN)C(=O)NC(C)C(=O)NC(CCCNC(=N)N)C(=O)NC(CCCCN)C(N)=O (stereo not given) (Ac-CSSWPSWHSWGGAQKARK-NH2; configuration not given here) | µM | > | 50
COc1cccc(C2SC(C)C(=O)N2NC(=O)C(O)c2ccccc2)c1 (stereo not given) | µM | > | 100
CC(=O)O[C@H]1CC[C@@]2(C)C(=CC[C@H]3C(CC#N)[C@@](C)(C#N)CCC32)C1 (stereo not given in full) | µM | > | 100
CC(C)(C)OC(=O)NC(Cc1ccccc1)C(=S)N1CCCC1 (stereo not given) | µM | > | 100
COc1cc(/C=C2\C[C@H]3[C@@H]4CC=C5C[C@@H](O)CC[C@]5(C)[C@H]4CC[C@]3(C)[C@H]2O)ccc1OCCN1CCCCC1 | µM | > | 50
COC1CC(O[C@H]2CC[C@@]3(C)C(=CCC4(O)C3CCC35C(=O)OC6(C)O[C@@]43CCC65)C2)OC(C)C1O (stereo not given in full) | µM | > | 100
COP(=O)(/C=C/C(NC(=O)C(Cl)(Cl)Cl)c1ccccc1)OC (stereo not given) | µM | > | 100
Nc1ccc2nc3n(c2c1)C(c1c(F)cccc1F)SC3 (stereo not given) | µM | > | 100
C[C@H](CCC(=O)O)[C@H]1CC[C@H]2[C@@H]3[C@H](O)[C@H](O)[C@@H]4C[C@H](O)CC[C@]4(C)[C@H]3CC[C@]12C | µM | > | 100
Oc1c(CN2CCCCC2)ccc2cccnc12 | µM | = | 24.4
CCCCCCCC(=O)Nc1nc2[nH]c(CN3CCN(Cc4cccc(I)c4)CC3)c(CN3CCN(Cc4cccc(I)c4)CC3)c2c(=O)[nH]1 | µM | = | 2.05
CC(=O)/C(=C/N1CC(=O)NC1=S)C(=O)Nc1ccccc1C | µM | > | 100
C[N+]1(CCNP(=S)(NCC[N+]2(C)Cc3c(ccc4c3OCO4)C3C2c2cc4c(cc2C[C@@H]3O)OCO4)NCC[N+]2(C)Cc3c(ccc4c3OCO4)C3C2c2cc4c(cc2C[C@@H]3O)OCO4)Cc2c(ccc3c2OCO3)C2C1c1cc3c(cc1C[C@H]2O)OCO3 (stereo not given in full) | µM | < | 0.00191
COc1cc(-c2n/c(=C\c3c(O)[nH]c4ccccc34)cc3c2=Nc2ccccc2-3)ccc1F | µM | = | 62.2
O=C([O-])c1ccccc1Nc1ccccc1C(=O)[O-].[OH3+].[Zn+2] | µM | = | 40.4
CC(=O)OC1CC2C(C)(C)C(=O)C=C[C@]2(C)C2CCC3(C)C(c4ccoc4)C(=O)C4OC43[C@]12C (stereo not given in full) | µM | = | 31.9
COc1ccc(Cc2ccc3[nH]c(=O)cc(C)c3c2)cc1S(=O)(=O)O | µM | > | 100
CC1CN=C(N(C(=O)Nc2ccc(Cl)cc2)c2cccc(Cl)c2)S1 (stereo not given) | µM | = | 44.9
CC1(C)CC[C@]2(C)[C@@H](O)C[C@]3(C)C(=CC[C@@H]4[C@@]5(C)CC[C@H](O)C(C)(C)[C@@H]5CC[C@]43C)[C@@H]2C1 | µM | = | 80.7
COc1ccc2[nH]c3c(c2c1)CCc1c(OC)cccc1-3 | µM | > | 100
CC12CP(=O)(O)CC1C2(Cl)Cl (stereo not given) | µM | > | 100
CO/S(=N/S(=O)(=O)c1ccccc1)c1ccccc1[N+](=O)[O-] (stereo not given) | µM | > | 100
CC(C)(C)c1ccc(NS(=O)(=O)c2ccc(N)cc2)cc1 | µM | = | 36.5
O=C(O)c1nn(-c2ccc(Cl)cc2)c2c1C(=O)c1ccccc1C2=O | µM | > | 100
C/C(COc1ccc2oc(-c3ccccc3)cc(=O)c2c1)=N\O | µM | > | 100
COc1ccc(-c2c(NC(=O)Nc3ccc(Cl)c(C(F)(F)F)c3)cnn2-c2ccc(S(N)(=O)=O)cc2)cc1 | µM | = | 5.52
NC(CCl)=NCC12CC3CC(CC(C3)C1)C2 | µM | = | 7.46
CCOc1cc2c(cc1O)C=C[C@@H]1[C@@H]2CC[C@]2(C)[C@@H](O)CC[C@@H]12 | µM | = | 42
CCCC[n+]1ccn(-c2nc3ccccc3n2C)c1 | µM | > | 100
Cc1cn(CC2(CO)CCC2)c(=O)[nH]c1=O | µM | > | 100
COc1ccc2c(c1)c1ccc3c(c1n2C)C(=O)C=CC3=O | µM | = | 34.7
O=C(Nc1ccc(Cl)cc1)c1cc(NCc2cc(O)ccc2O)ccc1O | µM | = | 27.3

---

# System: NCI-H522 lung
# ASSAY_PROCEDURE: NCI tumour cell line growth inhibition, 48 h; in the data active means GI50 below about 0.43 µM; inactive means the rest
Possible outcomes: 1 (yes) (active), 0 (no) (inactive)

COMPOUND | CATEGORY_LABEL
O=c1oc2ccc(F)cc2c(=O)n1-c1ccc(I)cc1F | 1 (yes)
CCOc1ccc(Nc2ccnc3cc(Cl)ccc23)cc1 | 0 (no)
CC1(C)N=C(N)N=C(N)N1c1cccc(CCCCc2ccc(Cl)c(S(=O)(=O)F)c2)c1 | 0 (no)
Cn1cnc(SC2=CC(=O)C=C3S[C@H]4C[C@@]23c2c(c(O)c3c5c2=NCCC=5C=N3)N4)c1CC(N)C(=O)O (some centres undefined) | 0 (no)
COc1cccc(C2SC(C)C(=O)N2NC(=O)C(O)c2ccccc2)c1 (centres undefined) | 0 (no)
[Mn+3].[O-][Cl+3]([O-])([O-])O.[O-]c1ccccc1C=NCCN1CC1.[O-]c1ccccc1C=NCCN1CC1 | 0 (no)
CCCCNC(=O)Oc1ccc(/C(=C(\C)c2ccc(OC)cc2)c2ccc(OCCN3CCCCC3)cc2)cc1 | 0 (no)
NC(CCl)=NCC12CC3CC(CC(C3)C1)C2 | 1 (yes)
C=C[C@@H]1CCC/C=C/[C@@H]2C[C@H](O)C[C@H]2[C@H](O)/C=C/C(=O)O1 | 0 (no)

---

# Tested on: SW-620 colon
# ASSAY_PROCEDURE: NCI tumour cell line growth inhibition, 48 h
Where a SMILES comes first, the peptide text is derived from it.

MOLECULE | TARGET_OR_SYSTEM | TGI
CC(=O)NC(CS)C(=O)NC(CO)C(=O)NC(CO)C(=O)NC(Cc1c[nH]c2ccccc12)C(=O)N1CCCC1C(=O)NC(CO)C(=O)NC(Cc1c[nH]c2ccccc12)C(=O)NC(Cc1c[nH]cn1)C(=O)NC(CO)C(=O)NC(Cc1c[nH]c2ccccc12)C(=O)NCC(=O)NCC(=O)NC(C)C(=O)NC(CCC(N)=O)C(=O)NC(CCCCN)C(=O)NC(C)C(=O)NC(CCCNC(=N)N)C(=O)NC(CCCCN)C(N)=O (stereo unspecified) (Ac-CSSWPSWHSWGGAQKARK-NH2; configuration not given here) | SW-620 colon | > 50 µM
O=S(=O)(O)c1ccc(N=Nc2ccc(N=Nc3c(O)ccc4ccc(S(=O)(=O)O)cc34)cc2)cc1 | SW-620 colon | > 100 µM
CN(CCO)CCC1COc2ccccc2O1 (stereo unspecified) | SW-620 colon | > 10 µM
CC(C)(Oc1ccc2c(=O)cc(-c3ccc(Cl)cc3)oc2c1)C(=O)Nc1c(Cl)cccc1Cl | SW-620 colon | > 100 µM
CCOC(=O)c1ccc(NCc2ccc3nc(OC)c(OC)nc3c2)cc1 | SW-620 colon | > 100 µM
CC(=O)NNc1ncc(C(=O)/C=C/c2ccccc2C)s1 | SW-620 colon | > 100 µM
